Ref: patent US10344049B2

test system: human Glioblastoma cells U87-MG; experiment: Cell viability test (Resazurin), U87-MG cells; format: cell-based; conditions: 48 hours, 0.1% FCS, Resazurin, read-out: inhibitory concentrations of cell growth activity IC50
Kindly state IC50 for each of the entries shown.
Answer format: numeric, µM implied, no suffix.

Given the entry `CC(C)=C[C@H](O)C[C@@H](C)[C@H]1CC[C@@]2(C)[C@@H]3[C@@H](O[C@@H]4O[C@H](CO)[C@@H](O)[C@H](O)[C@H]4O)C=C4[C@@H](CC[C@H](O)C4(C)C)[C@]3(C=O)CC[C@]12C` , what IC50 was observed with human Glioblastoma cells U87-MG?
103

Given the entry `CC(C)=C[C@@H](C[C@@H](C)[C@H]1CC[C@@]2(C)[C@@H]3[C@@H](O)C=C4[C@@H](CC[C@H](O)C4(C)C)[C@]3(C=O)CC[C@]12C)O[C@@H]1O[C@H](CO)[C@@H](O)[C@H](O)[C@H]1O` , what IC50 was observed with human Glioblastoma cells U87-MG?
49

Given the entry `C[C@H](C/C=C/C(C)(C)O)[C@H]1CC[C@@]2(C)[C@@H]3[C@@H](O[C@@H]4O[C@H](CO)[C@@H](O)[C@H](O)[C@H]4O)C=C4[C@@H](CC[C@H](O)C4(C)C)[C@]3(C=O)CC[C@]12C` , what IC50 was observed with human Glioblastoma cells U87-MG?
58.5

* * *

Kindly state pIC50 for each of the entries shown.
tested on: human Glioblastoma cells U87-MG; test: Cell viability test (Resazurin), U87-MG cells; format: cell-based; conditions: 48 hours, 0.1% FCS, Resazurin, read-out: inhibitory concentrations of cell growth activity IC50
# reply with the number alone; pIC50 is -log10 of concentration in mol/L

Given the entry COC1O[C@]23C=C[C@@H]4[C@@]1(CC[C@]1(C)[C@@H]([C@H](C)C[C@@H](O)C=C(C)C)CC[C@@]41C)[C@@H]2CC[C@H](O)C3(C)C (stereo partly drawn) [Compound 21] , what pIC50 was observed with human Glioblastoma cells U87-MG?
4.08

Given the entry CC(=O)O[C@H]1C=C2[C@@H](CC[C@H](O)C2(C)C)[C@]2(C=O)CC[C@]3(C)[C@@H]([C@H](C)C[C@@H](O)C=C(C)C)CC[C@@]3(C)[C@H]12 [Compound 8] , what pIC50 was observed with human Glioblastoma cells U87-MG?
5.12

Given the entry CO[C@H]1O[C@]23C=C[C@@H]4[C@@]1(CC[C@]1(C)[C@@H]([C@H](C)C/C=C/C(C)(C)O)CC[C@@]41C)[C@@H]2CC[C@H](O)C3(C)C [Compound 20] , what pIC50 was observed with human Glioblastoma cells U87-MG?
4.92

Given the entry COC1O[C@]23C=C[C@@H]4[C@@]1(CC[C@]1(C)[C@@H]([C@H](C)C/C=C/C(C)(C)O)CC[C@@]41C)[C@@H]2CC[C@H](O)C3(C)C (stereo partly drawn) [Compound 19] , what pIC50 was observed with human Glioblastoma cells U87-MG?
4.60

* * *

tested on: human breast cancer cells MDA-MB-231; experiment: Cell viability test (Resazurin), MDA-MB-231 cells; assay type: cell-based; set-up: scale not given here; settings: MDA-MB-231 cells; grade of the IC50 of Table 2
observable: evaluation of ability to inhibit cell growth activity (IC50)

INSERT INTO measurements (structuresmiles, observedvalue) VALUES
  ('CC(=O)O[C@@H](C=C(C)C)C[C@@H](C)[C@H]1CC[C@@]2(C)[C@@H]3[C@@H](O)C=C4[C@@H](CC[C@H](O)C4(C)C)[C@]3(C=O)CC[C@]12C', '◯'),
  ('CC(=O)O[C@H]1C=C2[C@@H](CC[C@H](OC(C)=O)C2(C)C)[C@]2(C=O)CC[C@]3(C)[C@@H]([C@H](C)C[C@@H](O)C=C(C)C)CC[C@@]3(C)[C@H]12', '◯'),
  ('CC(=O)O[C@H]1C=C2[C@@H](CC[C@H](OC(C)=O)C2(C)C)[C@]2(C=O)CC[C@]3(C)[C@@H]([C@H](C)C/C=C/C(C)(C)O)CC[C@@]3(C)[C@H]12', '◯'),
  ('CO[C@H]1O[C@]23C=C[C@@H]4[C@@]1(CC[C@]1(C)[C@@H]([C@H](C)C/C=C/C(C)(C)O)CC[C@@]41C)[C@@H]2CC[C@H](O)C3(C)C', '◯');

* * *

system: human lung cancer cells A549; experiment: Cell viability test (Resazurin), A549 cells; assay type: cell-based; conditions: A549 cells, 48 hours, 0.1% FCS, Resazurin; read-out: inhibitory concentrations of cell growth activity IC50
pIC50: −log10 of the molar value.
Assign class by pIC50: not lower than 4 means Met; lower than 4 means Not met.

In plain terms: is recorded pIC50 at least 4 for CC(C)=C[C@H](O)C[C@@H](C)[C@H]1CC[C@@]2(C)[C@@H]3[C@@H](O[C@@H]4O[C@H](CO)[C@@H](O)[C@H](O)[C@H]4O)C=C4[C@@H](CC[C@H](O)C4(C)C)[C@]3(C=O)CC[C@]12C [Compound 13] ?
Not met

In plain terms: is recorded pIC50 at least 4 for CC(=O)O[C@H]1C=C2[C@@H](CC[C@H](O)C2(C)C)[C@]2(C=O)CC[C@]3(C)[C@@H]([C@H](C)C[C@@H](O)C=C(C)C)CC[C@@]3(C)[C@H]12 [Compound 8] ?
Met

In plain terms: is recorded pIC50 at least 4 for CO[C@@H]1O[C@]23C=C[C@@H]4[C@@]1(CC[C@]1(C)[C@@H]([C@H](C)C[C@@H](O)C=C(C)C)CC[C@@]41C)[C@@H]2CC[C@H](O)C3(C)C [Compound 22] ?
Not met

In plain terms: is recorded pIC50 at least 4 for COC1O[C@]23C=C[C@@H]4[C@@]1(CC[C@]1(C)[C@@H]([C@H](C)C/C=C/C(C)(C)O)CC[C@@]41C)[C@@H]2CC[C@H](O)C3(C)C (stereo partly drawn) [Compound 19] ?
Met

In plain terms: is recorded pIC50 at least 4 for CO[C@H]1O[C@]23C=C[C@@H]4[C@@]1(CC[C@]1(C)[C@@H]([C@H](C)C/C=C/C(C)(C)O)CC[C@@]41C)[C@@H]2CC[C@H](O)C3(C)C [Compound 20] ?
Met

In plain terms: is recorded pIC50 at least 4 for C[C@H](C/C=C/C(C)(C)O)[C@H]1CC[C@@]2(C)[C@@H]3[C@@H](O[C@@H]4O[C@H](CO)[C@@H](O)[C@H](O)[C@H]4O)C=C4[C@@H](CC[C@H](O)C4(C)C)[C@]3(C=O)CC[C@]12C [Compound 14] ?
Not met

In plain terms: is recorded pIC50 at least 4 for CO[C@H]1O[C@]23C=C[C@@H]4[C@@]1(CC[C@]1(C)[C@@H]([C@H](C)C[C@H](C=C(C)C)OC)CC[C@@]41C)[C@@H]2CC[C@H](O)C3(C)C [Compound 18] ?
Not met

In plain terms: is recorded pIC50 at least 4 for COC1O[C@]23C=C[C@@H]4[C@@]1(CC[C@]1(C)[C@@H]([C@H](C)C/C=C/C(C)(C)OC)CC[C@@]41C)[C@@H]2CC[C@H](O)C3(C)C (stereo partly drawn) [Compound 17] ?
Not met

* * *

tested on: human leukemia cells U937; assay: Cell viability test (Resazurin), U937 cells; assay type: cell-based; details: Homo sapiens, U-937, U937 cells; grade of the IC50 of Table 2; read-out: evaluation of ability to inhibit cell growth activity (IC50)
observable: IC50

Could you tell me which IC50 is on file for C[C@H](C/C=C/C(C)(C)O)[C@H]1CC[C@@]2(C)[C@@H]3[C@@H](O)C=C4[C@@H](CC[C@H](O)C4(C)C)[C@]3(C=O)CC[C@]12C [Compound 1] ?
16 to 64 µM

Could you tell me which IC50 is on file for CC(=O)O[C@H]1CC[C@@H]2C(=C[C@H](O)[C@@H]3[C@@]2(C=O)CC[C@]2(C)[C@@H]([C@H](C)C[C@H](C=C(C)C)OC(C)=O)CC[C@@]32C)C1(C)C [Compound 6] ?
< 8 µM

Could you tell me which IC50 is on file for CC(=O)O[C@H]1C=C2[C@@H](CC[C@H](O)C2(C)C)[C@]2(C=O)CC[C@]3(C)[C@@H]([C@H](C)C[C@H](C=C(C)C)OC(C)=O)CC[C@@]3(C)[C@H]12 [Compound 7] ?
< 8 µM

Could you tell me which IC50 is on file for CC(=O)O[C@H]1C=C2[C@@H](CC[C@H](OC(C)=O)C2(C)C)[C@]2(C=O)CC[C@]3(C)[C@@H]([C@H](C)C[C@H](C=C(C)C)OC(C)=O)CC[C@@]3(C)[C@H]12 [Compound 3] ?
< 8 µM
